procedure text: Acute toxicity in mice
Assay type: in vivo
test settings: mouse, in vivo, ip, mice, i.p.; read-out: LD50 i.p.
measurement name: LD50
Record the result as a number with its unit.

- smiles data: "CC(=O)O.N=C(N)NCCC[C@@H](C=O)NC(=O)[C@@H]1CCCN1C(=O)[C@H](N)Cc1ccccc1"
  LD50: "38 mg/kg"

Next item in the queue.
Fill in LD50 for record `N=C(N)NCCC[C@@H](C=O)NC(=O)[C@@H]1CCCN1C(=O)[C@H](N)Cc1ccccc1.O=S(=O)(O)O`
230 mg/kg

====

test system: U.S. Standard Human Thrombin (Homo sapiens)
procedure text: Antithrombin activity (thrombin time) in human plasma
Type: biochemical
Design: U.S. Standard Human Thrombin; purchased NIH, Bethesda, Md., USA
test settings: pH 7.2, read-out: Amount of peptide required to increase thrombin time twofold immediately following dissolution of the peptide
measurement name: IC (2-fold thrombin time) (µg/mL)
Give bare numbers, in µg/mL.

- smiles data: "N=C(NCCC[C@@H](C=O)NC(=O)[C@@H]1CCCN1C(=O)[C@H](N)Cc1ccccc1)NC(=O)O"
  measurement name: "IC (2-fold thrombin time)"
  endpoint result: 0.042

Next item in the queue.
Fill in IC (2-fold thrombin time) for record `N=C(N)NCCC[C@@H](C=O)NC(=O)[C@@H]1CCCN1C(=O)[C@H](N)Cc1ccccc1.O=S(=O)(O)O`
0.02
